Molecular target: human recombinant HDAC6 (Homo sapiens)
Construct: purchased Calbiochem 382180
Sequence (Q9UBN7 1-1215): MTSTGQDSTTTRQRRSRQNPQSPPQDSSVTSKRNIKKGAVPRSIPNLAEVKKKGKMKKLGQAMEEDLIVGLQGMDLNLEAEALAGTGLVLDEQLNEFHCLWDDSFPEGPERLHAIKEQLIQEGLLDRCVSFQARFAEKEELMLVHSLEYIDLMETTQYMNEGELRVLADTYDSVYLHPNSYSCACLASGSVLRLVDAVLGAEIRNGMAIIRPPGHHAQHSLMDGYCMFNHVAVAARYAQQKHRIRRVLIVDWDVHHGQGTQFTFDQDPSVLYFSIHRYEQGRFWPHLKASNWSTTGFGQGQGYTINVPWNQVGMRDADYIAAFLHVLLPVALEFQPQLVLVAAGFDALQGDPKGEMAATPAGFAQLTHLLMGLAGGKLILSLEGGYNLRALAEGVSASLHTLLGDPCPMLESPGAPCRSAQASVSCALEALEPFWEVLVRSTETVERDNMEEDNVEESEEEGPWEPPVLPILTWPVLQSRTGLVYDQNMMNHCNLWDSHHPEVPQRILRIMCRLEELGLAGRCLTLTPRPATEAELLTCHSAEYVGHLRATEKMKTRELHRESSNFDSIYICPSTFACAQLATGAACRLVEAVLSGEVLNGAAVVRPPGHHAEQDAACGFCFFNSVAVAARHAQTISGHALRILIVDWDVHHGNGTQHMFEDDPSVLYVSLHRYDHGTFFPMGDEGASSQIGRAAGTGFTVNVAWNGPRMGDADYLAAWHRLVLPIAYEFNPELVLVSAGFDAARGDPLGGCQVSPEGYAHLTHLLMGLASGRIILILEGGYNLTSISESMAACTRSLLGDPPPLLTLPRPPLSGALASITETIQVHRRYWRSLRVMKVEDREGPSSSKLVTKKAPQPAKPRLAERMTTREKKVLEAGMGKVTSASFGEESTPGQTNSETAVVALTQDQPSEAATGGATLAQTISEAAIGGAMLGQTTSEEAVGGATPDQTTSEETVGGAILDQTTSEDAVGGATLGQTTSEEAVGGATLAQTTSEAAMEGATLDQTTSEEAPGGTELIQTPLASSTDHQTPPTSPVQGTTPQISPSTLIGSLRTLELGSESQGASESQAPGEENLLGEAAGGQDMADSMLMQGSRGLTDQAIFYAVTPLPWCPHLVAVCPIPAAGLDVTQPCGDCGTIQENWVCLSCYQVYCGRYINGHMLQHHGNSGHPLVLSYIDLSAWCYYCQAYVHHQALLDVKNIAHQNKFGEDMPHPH
Experiment: HDAC6 enzyme activity inhibition assay (HDAC Fluorimetric Drug Discovery Kit)
Assay type: biochemical
Conditions: human recombinant HDAC6, same protocol as HDAC1; read-out: HDAC6
measure: IC50 (nM)
Expressed in nM, but write only the number.

Below: 8 molecules and their reported IC50.
INSERT INTO results (molecule, tested_on, endpoint_value) VALUES
  ('COc1ccc(N(Cc2ccc(-c3nnc(C(F)(F)F)o3)cc2F)C(=O)N2CCS(=O)(=O)CC2)cc1 [Compound 21477]', 'human recombinant HDAC6 (Homo sapiens)', 73),
  ('O=C(NCCN1CCN(CCCO)CC1)N(Cc1ccc(-c2nnc(C(F)F)o2)cc1F)c1ccccc1 [Compound 21998]', 'human recombinant HDAC6 (Homo sapiens)', 66),
  ('CCN1CCN(C(=O)N(Cc2ccc(-c3nnc(C(F)F)o3)cc2)c2ccc(F)cc2)CC1 [Compound 21886]', 'human recombinant HDAC6 (Homo sapiens)', 46),
  ('O=C(N1CCS(=O)(=O)CC1)N(Cc1ccc(-c2nnc(C(F)F)o2)cc1F)c1ccc(OC(F)(F)F)cc1 [Compound 21514]', 'human recombinant HDAC6 (Homo sapiens)', 35),
  ('O=C(N1CCS(=O)(=O)CC1)N(Cc1ccc(-c2nnc(C(F)F)o2)cc1)c1ccc(-c2ccoc2)cc1 [Compound 21492]', 'human recombinant HDAC6 (Homo sapiens)', 36),
  ('O=C(N1CCS(=O)(=O)CC1)N(Cc1ccc(-c2nnc(C(F)(F)F)o2)cc1)c1ccc(C(F)(F)F)cc1 [Compound 21412]', 'human recombinant HDAC6 (Homo sapiens)', 470),
  ('CN1CCN(C(=O)N(Cc2ccc(-c3nnc(C(F)F)o3)cc2F)c2ccc(Br)cc2)CC1 [Compound 21466]', 'human recombinant HDAC6 (Homo sapiens)', 78),
  ('O=C(N1CCOCC1)N(Cc1ccc(-c2nnc(C(F)(F)F)o2)cc1F)CC12CC3CC(CC(C3)C1)C2 [Compound 21933]', 'human recombinant HDAC6 (Homo sapiens)', 2410);

Sure, the documented IC50 for O=C(N1CCS(=O)(=O)CC1)N(Cc1ccc(-c2nnc(C(F)F)o2)cc1F)c1ccccc1F [Compound 21808] is 21

Sure, the documented IC50 for O=C(N1CCOCC1)N(Cc1ccc(-c2nnc(C(F)F)o2)cc1F)c1nncs1 [Compound 21981] is 758

Sure, the documented IC50 for O=C(N1CCS(=O)(=O)CC1)N(Cc1ccc(-c2nnc(C(F)F)o2)cc1F)c1ccc(F)cc1 [Compound 21806] is 38

Sure, the documented IC50 for CN1CCN(C(=O)N(Cc2ccc(-c3nnc(C(F)F)o3)cc2F)c2cccc(Br)c2)CC1 [Compound 21465] is 30

Sure, the documented IC50 for COc1cccc(N(Cc2ccc(-c3nnc(C(F)F)o3)cn2)C(=O)N2CCN(C3COC3)CC2)c1 [Compound 21950] is 157

Sure, the documented IC50 for CCN1CCN(C(=O)N(Cc2ccc(-c3nnc(C(F)F)o3)cc2F)c2ccc(Cl)cc2)CC1 [Compound 21881] is 49

Sure, the documented IC50 for O=C(N1CCS(=O)(=O)CC1)N(Cc1ccc(-c2nnc(C(F)F)o2)cc1F)c1ccc(CN2CC(F)(F)C2)cc1 [Compound 21914] is 158

----------
Examples of molecules with documented HDAC6 selectivity (fold) follow.
target: human recombinant HDAC6 (Homo sapiens, UniProt Q9UBN7); construct: purchased Calbiochem 382180; experiment: HDAC6 enzyme activity inhibition assay (HDAC Fluorimetric Drug Discovery Kit); type: biochemical; settings: HDAC6 over HDAC1
Expressed in fold, but write only the number.

Below: 5 molecules and their reported HDAC6 selectivity (fold).
INSERT INTO measurements (compound_smiles, measure_unit, endpoint_value) VALUES
  ('CCN(CCN(C)C)C(=O)N(Cc1ccc(-c2nnc(C(F)F)o2)cc1)c1ccccc1', 'fold', 233),
  ('CCN1CCN(C(=O)N(Cc2ccc(-c3nnc(C(F)F)o3)cc2F)c2ccc(F)cc2)CC1', 'fold', 218),
  ('Cc1cccc(N(Cc2ccc(-c3nnc(C(F)F)o3)cc2F)C(=O)N2CCS(=O)(=O)CC2)c1', 'fold', 476),
  ('Cc1ccccc1N(Cc1ccc(-c2nnc(C(F)F)o2)cc1F)C(=O)N1CCN(C)CC1', 'fold', 244),
  ('O=C(NCCN1CCS(=O)(=O)CC1)N(Cc1ccc(-c2nnc(C(F)F)o2)cc1F)c1ccccc1', 'fold', 480);

Sure, the documented HDAC6 selectivity (fold) for O=C(N1CCOCC1)N(Cc1ccc(-c2nnc(C(F)(F)F)o2)cc1)c1ccccc1 is 115

Sure, the documented HDAC6 selectivity (fold) for CCN1CCN(C(=O)N(Cc2ccc(-c3nnc(C(F)F)o3)cn2)c2ccc(OC)cc2)CC1 is 1588

Sure, the documented HDAC6 selectivity (fold) for CCN1CCN(C(=O)N(Cc2ccc(-c3nnc(C(F)F)o3)cc2)c2ccc(F)cc2)CC1 is 218

----------
target: human recombinant HDAC1 (Homo sapiens, UniProt Q13547); construct: purchased Enzo Life Science BML-SE456; assay: HDAC1 enzyme activity inhibition assay (HDAC Fluorimetric Drug Discovery Kit); format: biochemical; settings: human recombinant HDAC1, Fluor de Lys substrate 10 μM, 30° C. 60 minutes
Sequence (Q13547 whole entry): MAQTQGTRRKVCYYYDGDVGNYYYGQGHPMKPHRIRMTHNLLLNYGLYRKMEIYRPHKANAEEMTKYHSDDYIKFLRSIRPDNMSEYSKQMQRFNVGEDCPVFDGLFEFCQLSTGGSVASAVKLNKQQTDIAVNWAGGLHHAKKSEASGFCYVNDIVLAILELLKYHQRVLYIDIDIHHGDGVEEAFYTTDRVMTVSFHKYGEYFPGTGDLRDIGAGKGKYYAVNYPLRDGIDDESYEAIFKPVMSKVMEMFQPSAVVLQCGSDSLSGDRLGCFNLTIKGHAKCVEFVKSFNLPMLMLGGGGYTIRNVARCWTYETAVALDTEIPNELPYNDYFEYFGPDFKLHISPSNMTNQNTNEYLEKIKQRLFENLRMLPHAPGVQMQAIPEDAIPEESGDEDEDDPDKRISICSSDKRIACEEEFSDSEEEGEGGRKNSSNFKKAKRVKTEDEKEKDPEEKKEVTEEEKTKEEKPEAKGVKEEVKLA
measure: IC50 (µM)
Expressed in µM, but write only the number.

Below: 6 compounds and their reported IC50.
INSERT INTO assay_data (compound_smiles, tested_on, measure, endpoint_value) VALUES
  ('CCN1CCN(C(=O)N(Cc2ccc(-c3nnc(C(F)F)o3)cc2F)c2ccc(F)cc2Cl)CC1', 'human recombinant HDAC1 (Homo sapiens, UniProt Q13547)', 'IC50', 36.1),
  ('CCN1CCN(C(=O)N(Cc2ccc(-c3nnc(C(F)(F)F)o3)cc2)c2ccc(F)cc2)CC1', 'human recombinant HDAC1 (Homo sapiens, UniProt Q13547)', 'IC50', 27.5),
  ('CCN1CCN(C(=O)N(Cc2ccc(-c3nnc(C(F)(F)F)o3)cc2F)c2cccc(Cl)c2)CC1', 'human recombinant HDAC1 (Homo sapiens, UniProt Q13547)', 'IC50', 13.7),
  ('O=C(N1CCOCC1)N(Cc1ccc(-c2nnc(C(F)F)o2)cc1F)c1cccc(Cl)c1', 'human recombinant HDAC1 (Homo sapiens, UniProt Q13547)', 'IC50', 28.8),
  ('O=C(N1CCS(=O)(=O)CC1)N(Cc1ccc(-c2nnc(C(F)F)o2)cn1)c1ccc(-c2ccncc2)cc1', 'human recombinant HDAC1 (Homo sapiens, UniProt Q13547)', 'IC50', 20.8),
  ('CCN1CCN(C(=O)N(Cc2ccc(-c3nnc(C(F)F)o3)cc2F)c2ccc(OC)cc2)CC1', 'human recombinant HDAC1 (Homo sapiens, UniProt Q13547)', 'IC50', 37.6);

Given the compound O=C(N1CCS(=O)(=O)CC1)N(Cc1ccc(-c2nnc(C(F)F)o2)cn1)c1ccc(-c2cccnc2)cc1 and test system human recombinant HDAC1 (Homo sapiens, UniProt Q13547), the measured IC50 is 17.7

Given the compound CCN1CCN(C(=O)N(Cc2ccc(-c3nnc(C(F)(F)F)o3)cc2)c2ccc(Cl)cc2)CC1 and test system human recombinant HDAC1 (Homo sapiens, UniProt Q13547), the measured IC50 is 33.7
